# measured target: pooled human IgG
property: Enzyme Activity Endpoint Assay: Fc (ng/µL)

>>> numeric_result("PRT-34 (protein) MANQEIRYSEVTPYHVTSVWTKGVTPPANFTQGEDVFHAPYVANQGWYDITKTFNGKDDLLCGAATAGNMLHWWFDQNKDQIKRYLEEHPEKQKINFNGEQMFDVKEAIDTKNSQLDSKLFEYFKEKAFPYLSTKHLGVFPDHVIDMFINGYRLSLTNHGPTPVKEGSKDPRGGIFDAVFTRGDQSKLLTSRHDFKEKNLKEISDLIKKELTEGKALGLSHTYANVRINHVINLWGADFDSNGNLKAIYVTDSDSNASIGMKKYFVGVNSAGKVAISAKEIKEDNIGAQVLGLFTLSTGQDSWNQTN")
95
>>> numeric_result("PRT-1 (protein) MANQEIRYSEVTPYHVTSVWTKGVTPPANFTQGEDVFHAPYVANQGWYDITKTFNGKDDLLCGAATAGNMLHWWFDQNKDQIKRYLEEHPEKQKINFNGEQMFDVKEAIDTKNHQLDSKLFEYFKEKAFPYLSTKHLGVFPDHVIDMFINGYRLSLTNHGPTPVKEGSKDPRGGIFDAVFTRGDQSKLLTSRHDFKEKNLKEISDLIKKELTEGKALGLSHTYANVRINHVINLWGADFDSNGNLKAIYVTDSDSNASIGMKKYFVGVNSAGKVAISAKEIKEDNIGAQVLGLFTLSTGQDSWNQTN")
100
